Parameter pIC50: see the listing below.
target: uPAR-expressing HEC-265 human endometrial adenocarcinoma cells (Homo sapiens, UniProt Q03405)
Sequence (Q03405 23-335): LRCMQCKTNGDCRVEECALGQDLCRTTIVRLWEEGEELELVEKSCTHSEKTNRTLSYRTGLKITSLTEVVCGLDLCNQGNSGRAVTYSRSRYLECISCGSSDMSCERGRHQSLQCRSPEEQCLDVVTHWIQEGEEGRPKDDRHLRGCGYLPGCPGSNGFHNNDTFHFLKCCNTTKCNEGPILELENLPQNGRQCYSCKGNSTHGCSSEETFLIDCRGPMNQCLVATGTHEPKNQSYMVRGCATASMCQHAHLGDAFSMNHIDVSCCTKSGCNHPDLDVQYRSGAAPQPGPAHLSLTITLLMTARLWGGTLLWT
pIC50: −log10 of the molar value. Where a SMILES comes first, the peptide text is derived from it. Bridges are numbered along the chain shown (N, C = ends). [ ]: non-standard residue; d: D form. The star is where a group is joined. Pro(4R-NH2) = N[C@H]1CN[C@H](C(=O)O)C1; Pentanoyl(4-Me) = CC(C)CCC(=O)*; Cit = NC(=O)NCCC[C@H](N)C(=O)O; Nle = CCCC[C@H](N)C(=O)O

Briefly, pIC50 measured for CC[C@H](C)[C@@H]1NC(=O)[C@@H](C)NC(=O)[C@@H]2C[C@@H](N)CN2C(=O)[C@H](Cc2ccccc2)NC(=O)[C@H](Cc2ccc(O)cc2)NC(=O)[C@H](CCC(N)=O)NC(=O)[C@H](CCCNC(N)=O)NC(=O)[C@@H](NC(=O)CCC(C)C)CSSC[C@@H](C(N)=O)NC(=O)[C@H](CC(C)C)NC1=O [UPAR-163] ({Pentanoyl(4-Me)}-C[Cit]QYF[Pro(4R-NH2)][dA]ILC-NH2; disulfide 1-10) : 7.50 to 7.90

The recorded pIC50 for CCCC[C@@H]1NC(=O)[C@H](CCC(=O)O)NC(=O)[C@@H](NC(=O)[C@H](CC(C)C)NC(=O)[C@H](CC(=O)O)NC(C)=O)CSSC[C@@H](C(N)=O)NC(=O)[C@H](CC(C)C)NC(=O)[C@H]([C@@H](C)CC)NC(=O)[C@H](C)NC(=O)[C@@H]2CCCN2C(=O)[C@H](Cc2ccccc2)NC(=O)[C@H](Cc2ccc(O)cc2)NC1=O [UPAR-239] (Ac-DLCE[Nle]YFPAILC-NH2; disulfide 3-12) is ≥ 8.00

---

Listed next: entries and their corresponding IC50.
biological target: uPAR-expressing HEC-265 human endometrial adenocarcinoma cells (Homo sapiens)
Where a SMILES comes first, the peptide text is derived from it. Bridges are numbered along the chain shown (N, C = ends). [ ]: non-standard residue; d: D form. The star is where a group is joined. DOTA = O=C(O)CN1CCN(CC(=O)O)CCN(CC(=O)*)CCN(CC(=O)O)CC1; Pro(4S-NH2) = N[C@@H]1CN[C@H](C(=O)O)C1; Ser(ΨH,HPro) = O=C(O)[C@@H]1COCN1; Hyp = O=C(O)[C@@H]1C[C@@H](O)CN1; Pentanoyl(4-Me) = CC(C)CCC(=O)*; Cit = NC(=O)NCCC[C@H](N)C(=O)O; Nva = CCC[C@H](N)C(=O)O; Pentanoyl = CCCCC(=O)*

Example entries and their recorded answers appear below.
- COMPOUND: "CCCCC(=O)N[C@H]1CSSC[C@@H](C(N)=O)NC(=O)[C@H](CCC)NC(=O)[C@H]([C@@H](C)CC)NC(=O)[C@@H]2C[C@H](N)CN2C(=O)[C@@H]2CCCN2C(=O)[C@H](Cc2ccccc2)NC(=O)[C@H](Cc2ccc(O)cc2)NC(=O)[C@H](CCCCNC(=O)CN2CCN(CC(=O)O)CCN(CC(=O)O)CCN(CC(=O)O)CC2)NC(=O)[C@H](CCCNC(N)=O)NC1=O [UPAR-325] (Pentanoyl-C[Cit]K(DOTA)YFP[Pro(4S-NH2)]I[Nva]C-NH2; disulfide 1-10)"
  STUDY SYSTEM: "uPAR-expressing HEC-265 human endometrial adenocarcinoma cells (Homo sapiens)"
  RECORDED ENDPOINT: "IC50"
  TEST RESULT: "≤ 10 nM"
- COMPOUND: "CC[C@H](C)[C@@H]1NC(=O)[C@@H](C)NC(=O)[C@@H]2C[C@@H](O)CN2C(=O)[C@H](Cc2ccccc2)NC(=O)[C@H](Cc2ccc(O)cc2)NC(=O)[C@H](CCC(N)=O)NC(=O)[C@H](CCCNC(N)=O)NC(=O)[C@@H](NC(=O)CCC(C)C)CSSC[C@@H](C(N)=O)NC(=O)[C@H](CC(C)C)NC1=O [UPAR-439] ({Pentanoyl(4-Me)}-C[Cit]QYF[Hyp][dA]ILC-NH2; disulfide 1-10)"
  STUDY SYSTEM: "uPAR-expressing HEC-265 human endometrial adenocarcinoma cells (Homo sapiens)"
  RECORDED ENDPOINT: "IC50"
  TEST RESULT: "≤ 10 nM"

Field: next compound
So for CC[C@H](C)[C@@H]1NC(=O)[C@@H](C)NC(=O)[C@@H]2COCN2C(=O)[C@H](Cc2ccccc2)NC(=O)[C@H](Cc2ccc(O)cc2)NC(=O)[C@H](CCC(N)=O)NC(=O)[C@H](CCCNC(N)=O)NC(=O)[C@@H](NC(=O)CCC(C)C)CSSC[C@@H](C(N)=O)NC(=O)[C@H](CC(C)C)NC1=O [UPAR-321] ({Pentanoyl(4-Me)}-C[Cit]QYF[Ser(ΨH,HPro)][dA]ILC-NH2; disulfide 1-10) , the logged IC50 turned out to be ≤ 10 nM

---

biological target: human uPAR (uPAR-Fc) (Homo sapiens); construct: comprising amino acids Leu23-Arg303 according to UniProt entry Q03405.1; purchased R&D Systems 10378-UK-100; experiment: Surface plasmon resonance (SPR) assay, single cycle kinetics; assay type: binding; conditions: pKD category for uPAR SPR activity assay; uPAR-Fc on Protein A-Chip, single cycle kinetics, 25°C; read-out: pKD CAT (converted)
Sequence (Q03405 23-303): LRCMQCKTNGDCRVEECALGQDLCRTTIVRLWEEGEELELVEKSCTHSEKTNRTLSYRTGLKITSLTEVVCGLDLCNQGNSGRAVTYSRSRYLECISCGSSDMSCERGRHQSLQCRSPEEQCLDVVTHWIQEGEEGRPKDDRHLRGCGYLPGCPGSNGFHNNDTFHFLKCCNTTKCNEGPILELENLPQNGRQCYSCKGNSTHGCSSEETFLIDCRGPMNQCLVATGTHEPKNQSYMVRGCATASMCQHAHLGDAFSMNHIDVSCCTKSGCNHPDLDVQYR
Where a SMILES comes first, the peptide text is derived from it. Bridges are numbered along the chain shown (N, C = ends). [ ]: non-standard residue; d: D form. Nle = CCCC[C@H](N)C(=O)O; Aib = CC(C)(N)C(=O)O
RECORDED ENDPOINT: Kd

GET /values?item= CCCC[C@@H]1NC(=O)[C@H](CCCNC(=N)N)NC(=O)[C@@H](NC(=O)[C@H](CC(C)C)NC(=O)[C@H](CC(=O)O)NC(C)=O)CSSC[C@@H](C(N)=O)NC(=O)[C@H](CC(C)C)NC(=O)[C@H]([C@@H](C)CC)NC(=O)C(C)(C)NC(=O)[C@@H]2CCCN2C(=O)[C@H](Cc2ccccc2)NC(=O)[C@H](Cc2ccc(O)cc2)NC1=O [UPAR-440] (Ac-DLCR[Nle]YFP[Aib]ILC-NH2; disulfide 3-12) &system= human uPAR (uPAR-Fc) (Homo sapiens) returns Kd: < 1.58 nM

---

Some compounds, each annotated with its measured pIC50.
target: uPAR-expressing HEC-265 human endometrial adenocarcinoma cells (Homo sapiens, UniProt Q03405); construct: Cell surface uPAR-expressing HEC-265 human endometrial adenocarcinoma cells; host or cells: HEC-265; assay: Competitive FACS binding assay; conditions: pIC50 category of FACS binding
pIC50: −log10 of the molar value. *1 amine or outer side, *2 acyl side, *3 side chain or, on linkers, in order; H or OH if unused. Where a SMILES comes first, the peptide text is derived from it. Bridges are numbered along the chain shown (N, C = ends). [ ]: non-standard residue; d: D form. The star is where a group is joined. DOTA = O=C(O)CN1CCN(CC(=O)O)CCN(CC(=O)*)CCN(CC(=O)O)CC1; Hyp = O=C(O)[C@@H]1C[C@@H](O)CN1; tBuAla = CC(C)(C)C[C@H](N)C(=O)O; Pentanoyl(4-Me) = CC(C)CCC(=O)*; Cit = NC(=O)NCCC[C@H](N)C(=O)O; X9 = OC[C@H](CS[*:1])N[*:2]; Nva = CCC[C@H](N)C(=O)O; Pentanoyl = CCCCC(=O)*; X2 = CCCOC(=O)*

- COMPOUND: "CC[C@H](C)[C@@H]1NC(=O)[C@@H](C)NC(=O)[C@@H]2CCCN2C(=O)[C@H](Cc2ccccc2)NC(=O)[C@H](Cc2ccc(O)cc2)NC(=O)[C@H](CCC(N)=O)NC(=O)[C@H](CCCNC(N)=O)NC(=O)[C@@H](NC(C)=O)CSSC[C@@H](C(N)=O)NC(=O)[C@H](CC(C)C)NC1=O [UPAR-243] (Ac-C[Cit]QYFP[dA]ILC-NH2; disulfide 1-10)"
  TEST RESULT: "≤ 6.90"
- COMPOUND: "CC[C@H](C)[C@@H]1NC(=O)[C@@H](C)NC(=O)[C@@H]2CCCN2C(=O)[C@H](Cc2ccccc2)NC(=O)[C@H](Cc2ccc(O)cc2)NC(=O)[C@H](CCC(N)=O)NC(=O)[C@H](CCCNC(N)=O)NC(=O)[C@@H](NC(=O)CCC(C)C)CSSC[C@@H](C(N)=O)NC(=O)[C@H](CC(C)(C)C)NC1=O [UPAR-477] ({Pentanoyl(4-Me)}-C[Cit]QYFP[dA]I[tBuAla]C-NH2; disulfide 1-10)"
  TEST RESULT: "7.00 to 7.40"
- COMPOUND: "CCCOC(=O)N[C@H]1CSSC[C@@H](C(N)=O)NC(=O)[C@H](CCC)NC(=O)[C@H]([C@@H](C)CC)NC(=O)[C@@H]2C[C@@H](O)CN2C(=O)[C@@H]2CCCN2C(=O)[C@H](Cc2ccccc2)NC(=O)[C@H](Cc2ccc(O)cc2)NC(=O)[C@H](CCCCNC(=O)CN2CCN(CC(=O)O)CCN(CC(=O)O)CCN(CC(=O)O)CC2)NC(=O)[C@H](CCCNC(N)=O)NC1=O [UPAR-267] (X2-C[Cit]K(DOTA)YFP[Hyp]I[Nva]C-NH2; disulfide 1-10)"
  TEST RESULT: "7.00 to 7.40"

Per the records, this compound ( CCCCC(=O)N[C@H]1CSSC[C@@H](CO)NC(=O)[C@H](CCC)NC(=O)[C@H]([C@@H](C)CC)NC(=O)[C@@H]2C[C@@H](O)CN2C(=O)[C@@H]2CCCN2C(=O)[C@H](Cc2ccccc2)NC(=O)[C@H](Cc2ccc(O)cc2)NC(=O)[C@H](CCC(N)=O)NC(=O)[C@H](CCCNC(N)=O)NC1=O [UPAR-292] (Pentanoyl-C[Cit]QYFP[Hyp]I[Nva]; linker 1-C via X9) ) has pIC50 equal to ≥ 8.00

Measured pIC50, CC[C@H](C)[C@@H]1NC(=O)[C@@H](C)NC(=O)[C@@H]2CCCN2C(=O)[C@H](Cc2ccccc2)NC(=O)[C@H](Cc2ccc(O)cc2)NC(=O)[C@H](CCC(N)=O)NC(=O)[C@H](CCCNC(N)=O)NC(=O)[C@@H](NC(=O)[C@H](CC(C)C)NC(C)=O)CSSC[C@@H](C(N)=O)NC(=O)[C@H](CC(C)C)NC1=O [UPAR-418] (Ac-LC[Cit]QYFP[dA]ILC-NH2; disulfide 2-11) : ≥ 8.00
